Source: paper PMC10797590

# assay.target: dengue virus envelope protein 2 (DENV2) (Dengue virus type 2, UniProt P29990)
# Construct: Dengue virus envelope protein 2 (DENV2) was purchased from the Native Antigen Company; purchased Native Antigen Company
# protocol.description: SPR binding study of GlcA glycodendrimers on immobilized DENV2 (Biacore 3000, CM4 chip)
# Set-up: species or system dengue virus serotype 2
# cond: GD flowed at 100 μM over immobilized DENV2
Reported SPR binding response by item:
recorded.endpoint: SPR binding response

• O=C(O)[C@H]1O[C@@H](OCCCn2cc(COc3cc4c5cc(OCc6cn(CCCO[C@@H]7O[C@H](C(=O)O)[C@@H](O)[C@H](O)[C@H]7O)nn6)c(OCc6cn(CCCO[C@@H]7O[C@H](C(=O)O)[C@@H](O)[C@H](O)[C@H]7O)nn6)cc5c5cc(OCc6cn(CCCO[C@@H]7O[C@H](C(=O)O)[C@@H](O)[C@H](O)[C@H]7O)nn6)c(OCc6cn(CCCO[C@@H]7O[C@H](C(=O)O)[C@@H](O)[C@H](O)[C@H]7O)nn6)cc5c4cc3OCc3cn(CCCO[C@@H]4O[C@H](C(=O)O)[C@@H](O)[C@H](O)[C@H]4O)nn3)nn2)[C@H](O)[C@@H](O)[C@@H]1O = 0.0 RU
• O=C(O)[C@H]1O[C@@H](OCCCn2cc(CN(Cc3cn(CCCO[C@@H]4O[C@H](C(=O)O)[C@@H](O)[C@H](O)[C@H]4O)nn3)Cc3cn(CCCO[C@@H]4O[C@H](C(=O)O)[C@@H](O)[C@H](O)[C@H]4O)nn3)nn2)[C@H](O)[C@@H](O)[C@@H]1O [12a] = 9.8 RU
• O=C(O)[C@H]1O[C@@H](OCCCn2cc(COc3cc(COCc4cc(OCc5cn(CCCO[C@@H]6O[C@H](C(=O)O)[C@@H](O)[C@H](O)[C@H]6O)nn5)cc(OCc5cn(CCCO[C@@H]6O[C@H](C(=O)O)[C@@H](O)[C@H](O)[C@H]6O)nn5)c4)cc(OCc4cn(CCCO[C@@H]5O[C@H](C(=O)O)[C@@H](O)[C@H](O)[C@H]5O)nn4)c3)nn2)[C@H](O)[C@@H](O)[C@@H]1O = 5.0 RU
• O=C(O)[C@H]1O[C@@H](OCCCn2cc(COc3cc(COCc4cc(OCc5cn(CCCO[C@@H]6O[C@H](C(=O)O)[C@@H](O)[C@H](O)[C@H]6O)nn5)c(OCc5cn(CCCO[C@@H]6O[C@H](C(=O)O)[C@@H](O)[C@H](O)[C@H]6O)nn5)c(OCc5cn(CCCO[C@@H]6O[C@H](C(=O)O)[C@@H](O)[C@H](O)[C@H]6O)nn5)c4)cc(OCc4cn(CCCO[C@@H]5O[C@H](C(=O)O)[C@@H](O)[C@H](O)[C@H]5O)nn4)c3OCc3cn(CCCO[C@@H]4O[C@H](C(=O)O)[C@@H](O)[C@H](O)[C@H]4O)nn3)nn2)[C@H](O)[C@@H](O)[C@@H]1O = 68.5 RU
• O=C(O)[C@H]1O[C@@H](OCCCn2cc(COc3cc(OCc4cn(CCCO[C@@H]5O[C@H](C(=O)O)[C@@H](O)[C@H](O)[C@H]5O)nn4)cc(OCc4cn(CCCO[C@@H]5O[C@H](C(=O)O)[C@@H](O)[C@H](O)[C@H]5O)nn4)c3)nn2)[C@H](O)[C@@H](O)[C@@H]1O = 60.8 RU
